Where do these numbers come from? They come from patent US8673929B2.

For each record, write down the corresponding pEC50.
target: HCV replicon; test: Anti-HCV replicon assay, EC50 (luciferase readout); format: cell-based; settings: Huh-7 HCV replicon cells, 3 days incubation, luciferase luminescence
pEC50: −log10 of the molar value.

- Compound: "CCOc1ncnc2ccc(-c3cn[nH]c3)cc12"
  Result value: "6.00 to 6.52"
- Compound: "CONC(=O)c1ccc(-c2ccc3nc(N)nc(OCC4CC4)c3c2)cc1"
  Result value: "6.00 to 6.52"
- Compound: "CCOc1nc(N)nc2ccc(-c3ccc(C(=O)N4CCCCC4)cc3)cc12"
  Result value: "5.00 to 6.00"
- Compound: "CCOc1nc(NCc2ccc(S(N)(=O)=O)cc2)nc2ccc(-c3ccc(C(=O)NC4CC4)cc3)cc12"
  Result value: "> 6.52"
- Compound: "CN(C)CCCOc1nc(N)nc2ccc(-c3ccc(C(F)(F)F)cc3C(F)(F)F)cc12"
  Result value: "5.00 to 6.00"

# ---- query compound ----
Prompt: Respond only with pEC50 recorded for `CN(C)CCCOc1nc(N)nc2ccc(-c3ccc(F)c(Cl)c3)cc12`
Completion: 5.00 to 6.00
